The reported numbers originate from paper PMC12377726.

Biological target: eOD-GT8 (engineered outer domain germline-targeting version 8), monomer (HIV-1 gp120 engineered outer domain, …)
REPORTED_METRIC: binding result

Entry G001_gp1_V07_VRC01c_97 (antibody, V domains shown) VH: QVQLVQSGAEVKKPGASVKVSCKASGYSFTDYYMHWVRQAPGQGLEWMGWINPNSGGTNYAQKFQGRVTMTRDTSISTAYMELSRLRSDDTAVYYCASDVEMANRGGWKFDYWGQGTLVTVSS VL: QSALTQPASVSGSPGQSITISCTGTSSDVGSYNLVSWYQQHPGTAPKLMIYEVSKRPSGVSNRFSGSKSGNTASLTISGLQAEDEADYYCCSYEVFGGGTKLTVL ; binding result = binds

Entry G001_gp1_V08_VRC01c_147 (antibody, V domains shown) VH: QVQLVQSGAEVKQPGASVKVSCKASGYTFTGYYIHWIRQAPGQGLEWMGWINPKSGGTNYARNFQGRVTMTRDTSISTSYLLLSRLRSDDTAVYYCFRGAEGWLLKYWGQGTLVTVSS VL: DIQMTQSPSSLSASVGDRVTITCQASQDISNYLNWYQQKPGKAPKLLIYDASNLETGVPSRFSGSGSGTDFTFTISSLQPEDIATYFCQHYEFFGPGTKVDIK ; binding result = binds

Entry G001_gp1_V08_VRC01c_2021-0052 (antibody, V domains shown) VH: QVQLVQSGAEVKKPGASVKVSCKASGHTFSGYYMHWVRQAPGQGLEWMGWINPNSGGTNYAQKFQGRVTMTRDTSISTAYMELSRLRTYDTAVYYCARAYSSGWRFGWGQGTMVTVSS VL: DIQMTQSPSSLSASVGDRVTITCQASQDITKYLNWYQQKPGQAPKLLIYDASNLETGVPSRFSGSGSGTYFTFTISSLQPEDIATYYCQQYDNFGGGTKVEIK ; binding result = binds
